test system: SFV-Rluc
Structures can show the parent of a compound that is named as a salt.
Each record is given y if its reported SFV replication % left (surviving fraction, remaining percentage of SFV replication) is strictly below 80%. Records at or above 80% are given n.

>>> qualitative_label("CCN(CC)C(C)C(=O)c1ccccc1 (stereo not drawn) [Diethylpropion hydrochloride]")
"y"
>>> qualitative_label("O=c1c(O)c(-c2ccc(O)cc2)oc2cc(O)cc(O)c12")
"y"
>>> qualitative_label("CCS(=O)(=O)CCn1c([N+](=O)[O-])cnc1C")
"n"
>>> qualitative_label("COC(=O)C1=CCCN(C)C1 [Arecoline hydrobromide]")
"n"
>>> qualitative_label("CCCCNc1ccc(C(=O)OCCN(C)C)cc1.Cl")
"n"
>>> qualitative_label("Cc1c(N(C)CS(=O)(=O)[O-])c(=O)n(-c2ccccc2)n1C.[Na+] [Metamizol sodium]")
"n"
>>> qualitative_label("C[C@@H]1O[C@@H](Oc2c(-c3ccc(O)c(O)c3)oc3cc(O)cc(O)c3c2=O)[C@H](O)[C@H](O)[C@H]1O.O.O [Quercitrin dihydrate]")
"y"
>>> qualitative_label("CC(C)[N+](C)(CCOC(=O)C1c2ccccc2Oc2ccccc21)C(C)C.[Br-]")
"y"
>>> qualitative_label("CCCCC1C(=O)N(c2ccccc2)N(c2ccc(O)cc2)C1=O (stereo not drawn)")
"n"

====

test system: SFV-Rluc; settings: primary screening of chemical libraries; compounds tested at 50 µM
Measured Attribute: SFV replication % left (%)

>>> recorded_number("C#C[C@]1(O)CC[C@H]2[C@@H]3CCC4=CC(=O)CC[C@@H]4[C@H]3CC[C@@]21C")
107.8
>>> recorded_number("CCN(CCO)CCCC(C)Nc1ccnc2cc(Cl)ccc12.O=S(=O)(O)O (centres unmarked)")
128.9
>>> recorded_number("Cc1cc(=O)oc2cc(O)ccc12 [NC-108]")
90.9
>>> recorded_number("COc1ccc2ccc(=O)oc2c1O")
105.6
>>> recorded_number("CC(=O)c1ccc(O)cc1")
29.4
>>> recorded_number("CC(=O)NS(=O)(=O)c1ccc(N)cc1")
63.2
>>> recorded_number("CC(C)(C)NCC(O)COc1cccc2c1CC(O)C(O)C2 (centres unmarked)")
60.5
>>> recorded_number("O=C(O)c1cc(-c2ccccc2)nc2ccccc12")
65.1
>>> recorded_number("C#CCN(C)[C@H](C)Cc1ccccc1.Cl")
57.0
>>> recorded_number("COc1ccc(OC)c(C(O)C(C)N)c1.Cl (centres unmarked)")
98.4
>>> recorded_number("Cl.Cl.OCCN1CCN(CCC=C2c3ccccc3Sc3ccc(Cl)cc32)CC1")
55.2

====

SFV replication % left overview
system: SFV-Rluc; settings: primary screening of chemical libraries; compounds tested at 50 µM
Measured Attribute: SFV replication % left (%)

>>> recorded_number("O=c1ccc2ccccc2o1")
68.8
>>> recorded_number("O=C(/C=C/c1ccc(O)c(O)c1)O[C@H](Cc1ccc(O)c(O)c1)C(=O)O")
120.3
>>> recorded_number("O=C(O)c1ccc(O)cc1O")
32.1
>>> recorded_number("O=C(O)c1cccc(O)c1O")
93.1
>>> recorded_number("O=c1cc(-c2ccccc2)oc2cc(O)cc(O)c12")
18.1
>>> recorded_number("Br.COC(=O)C1=CCCN(C)C1")
83.6
>>> recorded_number("CC(C)(C)NCC(O)COc1cccc2c1CCC(=O)N2.Cl (centres unmarked)")
67.2
>>> recorded_number("COc1cc(C=O)ccc1O")
47.9
>>> recorded_number("C[C@@H]1O[C@@H](O[C@H]2C[C@@H](O)[C@]3(CO)[C@H]4[C@H](O)C[C@]5(C)[C@@H](C6=CC(=O)OC6)CC[C@]5(O)[C@@H]4CC[C@]3(O)C2)[C@H](O)[C@H](O)[C@H]1O")
90.9
>>> recorded_number("Oc1cc(O)c2cc(O)c(-c3ccc(O)c(O)c3)[o+]c2c1.[Cl-]")
24.5
>>> recorded_number("C[C@@]12CCC[C@H]1[C@@H]1CC[C@H]3CCCC[C@]3(C)[C@H]1CC2")
53.0
>>> recorded_number("COc1cc(C(=O)O)ccc1O")
53.4
>>> recorded_number("O=C1c2c(O)cccc2Cc2cccc(O)c21")
27.2
>>> recorded_number("COc1ccccc1OCC(O)CO (centres unmarked)")
124.5
>>> recorded_number("COc1ccc2cc([C@H](C)C(=O)O)ccc2c1")
92.7
>>> recorded_number("Cc1ccccc1OCC(O)CO (centres unmarked)")
79.2
>>> recorded_number("O=c1c(O)c(-c2ccc(O)c(O)c2)oc2cc(O)cc(O)c12")
125.8
>>> recorded_number("Cc1cccc(C)c1NC(=O)C1CCCCN1C.Cl (centres unmarked)")
74.9
>>> recorded_number("CC(C)Cc1ccc(CC(=O)O)cc1")
102.2
>>> recorded_number("COc1cc2ccc(=O)oc2c(O)c1OC")
77.8
>>> recorded_number("O=C(O)/C=C/c1ccccc1O")
77.6
>>> recorded_number("COc1cc(O)c2c(=O)c(O)c(-c3ccc(O)c(O)c3)oc2c1")
119.1
>>> recorded_number("NC(=O)c1cccnc1")
116.9

Each recorded value in this set is attributed to paper PMC3242765.
